Source listed as PubChem BioAssay AID1159580.

Reported normalized growth by item:
# method: chemical genetic growth profiling, strain panel (AID 1159580);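 further: tested at 20 µM; growth read once vehicle control cultures reached saturation at 30 °C; 1 = growth at the plate median or of vehicle wells; lower values mean less growth of the strain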
# measurement-parameters: S. cerevisiae deletion strains, growth OD, locus YBR023C, strain chs3, stronger effect = lower value
Hit rate of the full screen: of about 5,500 compounds, about 2,000 (36%) were called active. Inconclusive results (about 18%) are left out. Some of the results follow.
Reply: number alone, nothing else.

Below, 5 compounds whose answers are already recorded.
- compound: "O=C(Cc1cccs1)NC1C(=O)N2C(C(=O)[O-])=C(C[n+]3ccccc3)CSC12 (configuration not stated)"
  observed-value: 0.993
- compound: "NC(N)=NC(=O)c1nc(Cl)c(N)nc1N"
  observed-value: 1.04
- compound: "O=C(O)C1=C[C@@H](O)[C@@H](O)[C@H](O)C1"
  observed-value: 0.988
- compound: "C[C@@H]1CC[C@@]2(OC1)O[C@H]1CC3C4CC[C@H]5C[C@@H](O)CC[C@]5(C)C4CC[C@]3(C)[C@H]1[C@@H]2C (some centres not stated)"
  observed-value: 1
- compound: "CC(=O)Oc1ccc2c(c1OC(C)=O)OCC1(O)Cc3c(cc(OC(C)=O)c(OC(C)=O)c3OC(C)=O)C21 (configuration not stated)"
  observed-value: 0.988

For this compound ( "O=c1cc(-c2ccc(O)cc2)oc2cc(O[C@@H]3O[C@H](CO)[C@@H](O)[C@H](O)[C@H]3O)cc(O)c12" ), measured normalized growth is 0.995

Recorded normalized growth (compound "COc1ccc(-c2cc(=O)c3c(O)cc(O[C@@H]4O[C@H](CO[C@H]5O[C@H](C)[C@@H](O)[C@H](O)[C@@H]5O)[C@@H](O)[C@H](O)[C@H]4O)cc3o2)cc1O" ): 1.01

Per the records, this compound ( "COc1ccc(-c2oc3cc(O[C@H]4O[C@H](CO)[C@@H](O)[C@H](O)[C@H]4O)c(OC)c(O)c3c(=O)c2OC)cc1O" ) has normalized growth equal to 0.992

The value of normalized growth measured for the compound CN[C@@H]1C(O)[C@@H](O[C@@H]2[C@@H](O)[C@H](O[C@H]3OC(CN)=CC[C@H]3N)[C@@H](N)C[C@H]2N)OC[C@]1(C)O (some centres not stated) turned out to be 1.01

* * *

Here, each record is paired with measured normalized growth data.
# method: chemical genetic growth profiling, strain panel (AID 1159580);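 further: tested at 20 µM; growth read once vehicle control cultures reached saturation at 30 °C; 1 = growth at the plate median or of vehicle wells; lower values mean less growth of the strain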
# measurement-parameters: S. cerevisiae deletion strains, growth OD, locus YEL061C, strain CIN8, stronger effect = lower value
Screen size: about 5,500 compounds; about 2,000 (36%) were called active. Another 18% or so got no clear call; they are omitted. The list shows a part of the results.
# output: bare number, no unit

// solved cases for normalized growth follow
- compound: "C[C@]12CCC3c4ccc(O)cc4CCC3C1CC[C@@H]2O (some centres undefined)"
  normalized growth: 1.02
- compound: "CNC(C)C(O)c1ccccc1 (centres undefined)"
  normalized growth: 1
- compound: "NC(CSCSCC(N)C(=O)O)C(=O)O (centres undefined)"
  normalized growth: 1.02
- compound: "NC(N)=NC(=O)c1nc(Cl)c(N)nc1N"
  normalized growth: 1
- compound: "COC(=O)[C@]1(C)CCC[C@]2(C)c3ccc(C(C)C)cc3C(=O)CC12 (some centres undefined)"
  normalized growth: 0.997

GET /value?item= "NC(N)=NC(=O)c1nc(Cl)c(N2CCCCCC2)nc1N" &field=normalized growth returns 1.01

Lab book: normalized growth of CC(C)CC1NC(=O)NC1=O (centres undefined) noted as 1.02

The reported normalized growth of the compound "CCc1cc(C(N)=S)ccn1" was 0.959

Entry under test: "C=C1SC(Nc2cccc(C(F)(F)F)c2)=NC12CCCCC2" . Its normalized growth was 1.01

Just so you know, measured normalized growth for "COc1ccc(Cl)cc1C(=O)NCCc1ccc(S(=O)(=O)NC(=O)NC2CCCCC2)cc1" came out at 0.984

// normalized growth lookup, compound = "COc1cc(/C=C(\C#N)C(N)=S)cc(OC)c1OC" , result: 0.674

Quick note, normalized growth for "ON=C(c1cccs1)c1cccs1" landed at 0.947

normalized growth reported for this compound "FC(F)(F)c1ccc(Cl)c(NC(=S)NN=C2CCCCCC2)c1" : 0.89

GET /value?item= OC1(C(F)(F)F)CC(c2ccccc2)=NN1 (centres undefined) &field=normalized growth returns 1

Record summary for "O=[N+]([O-])c1ccc(Oc2cccc3cccnc23)cc1" : reported normalized growth = 0.98

Quick note, normalized growth for "Brc1ccc(-c2ccn[nH]2)s1" landed at 0.938

Form field normalized growth, entry "CN1C(C)(C)CCCC1(C)C" : 1.02

Consider COC(=O)[C@@]1(C)CCC[C@]2(C)c3ccc(O)c(C(C)C)c3CCC12 (some centres undefined) . Its measured normalized growth is 0.803

# normalized growth of "CN(C)c1nc(N)c(C(=O)N=C(N)N)nc1Cl" = 1.01

"COC(=O)CSc1nc2ccc(Cl)cc2s1" yielded normalized growth of 0.96

Measured normalized growth, CCC1OC(=O)[C@H](C)C(=O)[C@H](C)[C@@H](OC2O[C@H](C)C[C@H](N(C)C)[C@H]2O)[C@](C)(OC)C2(CCCn3cnc(-c4cccnc4)c3)C[C@@H](C)C(=O)[C@H](C)[C@H]3N(C2)C(=O)O[C@]13C (some centres undefined) : 1

Form field normalized growth, entry COC(=O)C1OC(=O)C2OC23C1(C)CCC1C2(C)C(OC(C)=O)CC(OC(C)=O)C(C)(C)C2CC(=O)C13C (centres undefined) : 1

# normalized growth (compound: CC12CCC3c4ccc(OC(=O)c5ccccc5)cc4CCC3C1CCC2O (centres undefined) ) is 1.01

Recorded result, CCCCCCC(C)OC(=O)COc1ccc(Cl)cc1Cl (centres undefined) , normalized growth: 0.986

# compound "O=[N+]([O-])c1ccc(OCCCOc2ccc([N+](=O)[O-])cc2)cc1" ; its normalized growth = 0.979

The recorded normalized growth for "COC(=O)c1c(C)cc(OC)cc1O" is 0.989

For "COc1cc(OC)c2c(=O)c(OC)c(-c3ccc(OC)c(OC)c3)oc2c1" the compound record lists normalized growth as 1

The measured normalized growth associated with "O=C(O[C@@H]1Cc2c(O)cc(O)cc2O[C@@H]1c1cc(O)c(=O)c2c(O)c(O)cc([C@H]3Oc4cc(O)cc(O)c4C[C@H]3OC(=O)c3cc(O)c(O)c(O)c3)c2c1)c1cc(O)c(O)c(O)c1" reads 0.817

According to the records, this compound "CN1C[C@H](C(=O)N[C@]2(C)O[C@@]3(O)[C@@H]4CCCN4C(=O)[C@H](Cc4ccccc4)N3C2=O)C[C@@H]2c3cccc4[nH]cc(c34)C[C@H]21" displays normalized growth of 0.996
